SYSTEM UNDER TEST: T1, recombinant extracellular domain (ECD) of human TF, amino acid 1-219 of the mature chain, C-terminal His6-tag (human, UniProt P13726 33-251)
T1 construct: expressed in a mammalian system; used for ELISA and Biacore; biotinylated by NHS-ester for the Fab ELISA; also called His6-TF-ECD1-219; HumanTF1-219
METHOD SUMMARY: Biacore
Could you label it 1 (yes) if measured koff is 0.0001 s⁻¹ or higher, and 0 (no) otherwise?

Previously resolved entries follow.
BINDER	CLASS LABEL
M51 (antibody, V domains shown, complete MAb; FR4 is its own entry; also called H21/L2) VH: EVQLVQSGAEVKKPGATVKISCKVSGYTFITYWIEWVQQAPGKGLEWMGDILPGSGSTNYNENFKGRVTITADTSTDTAYMELSSLRSEDTAVYYCATSGYYGNSGFAYWGQGTLVTVSS VL: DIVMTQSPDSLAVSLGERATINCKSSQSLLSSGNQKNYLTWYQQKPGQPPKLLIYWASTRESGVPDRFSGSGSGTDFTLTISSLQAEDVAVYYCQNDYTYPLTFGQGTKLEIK	1 (yes)
M52 (antibody, V domains shown, complete MAb; FR4 is its own entry; also called H21/L3) VH: EVQLVQSGAEVKKPGATVKISCKVSGYTFITYWIEWVQQAPGKGLEWMGDILPGSGSTNYNENFKGRVTITADTSTDTAYMELSSLRSEDTAVYYCATSGYYGNSGFAYWGQGTLVTVSS VL: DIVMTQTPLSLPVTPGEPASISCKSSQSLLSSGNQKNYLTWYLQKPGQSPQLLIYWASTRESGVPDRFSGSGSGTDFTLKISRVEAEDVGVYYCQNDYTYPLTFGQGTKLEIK	1 (yes)
M1592 (antibody, V domains shown, complete MAb; FR4 is its own entry; also called H165/L3) VH: EVQLVQSGAEVKKPGESLRISCKGSGYTFSPHWIEWVRQMPGKGLEWMGDILPGSGYTIYSPSFQGHVTISADKSISTAYLQWSSLKASDTAMYYCARSGYYGNSGFAYWGQGTLVTVSS VL: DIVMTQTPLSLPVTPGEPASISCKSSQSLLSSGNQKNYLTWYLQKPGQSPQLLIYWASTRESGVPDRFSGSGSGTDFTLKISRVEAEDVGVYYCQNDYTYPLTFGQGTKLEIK	0 (no)

Field: next binder
## Input Entry M1599 (antibody, V domains shown, complete MAb; FR4 is its own entry; also called H130/L3) VH: EVQLVQSGAEVKKPGESLRISCKGSGYTFGPYWIEWVRQMPGKGLEWMGDILPGTGYTLYSPSFQGHVTISADKSISTAYLQWSSLKASDTAMYYCARSGYYGNSGFAYWGQGTLVTVSS VL: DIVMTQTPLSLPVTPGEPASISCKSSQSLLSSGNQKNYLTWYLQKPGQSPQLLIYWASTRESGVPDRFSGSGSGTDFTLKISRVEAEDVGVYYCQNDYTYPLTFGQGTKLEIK : is its koff no less than 0.0001 s⁻¹?
## Output 0 (no)

These measurements were taken from patent US20120237528A1.
